As shown below, each of these molecules has a reported melting point value.
quantityMeasured: melting point

{"columns": ["molecule", "quantityMeasured", "measuredValue"],
 "data": [
  ["C#CC(C)(C)NC(=O)C(CC)Oc1cc(Cl)c2ncc(SC)cc2c1 (stereo not drawn)", "melting point", "140 to 142 °C"],
  ["CC#CC(C)(C)NC(=O)C(OC)Oc1cc(C)c2ncc(SC)cc2c1 (stereo not drawn)", "melting point", "102 to 104 °C"],
  ["CCOc1cnc2c(C)cc(OC(SC)C(=O)NC(C)(C)/C=N/OC)cc2c1 (stereo not drawn)", "melting point", "125 to 126 °C"],
  ["COc1cnc2ccc(OC(SC)C(=O)NC(C)(C)C)cc2c1 (stereo not drawn)", "melting point", "110 to 115 °C"],
  ["CC#CC(C)(C)NC(=O)C(Oc1cc(C)c2ncc(OCC)cc2c1)SC (stereo not drawn)", "melting point", "137 to 139 °C"],
  ["COC(Oc1cc(Cl)c2ncc(SC)cc2c1)C(=O)NC(C)(C)C (stereo not drawn)", "melting point", "125 to 127 °C"],
  ["CCC(Oc1cc(Cl)c2ncc(SC)cc2c1)C(=O)NC(C)(C)/C=N/OC (stereo not drawn)", "melting point", "119 to 121 °C"],
  ["CO/N=C/C(C)(C)NC(=O)C(Oc1cc(Cl)c2ncc(SC)cc2c1)SC (stereo not drawn)", "melting point", "168 to 170 °C"],
  ["CC#CC(C)(C)NC(=O)C(Oc1cc(Cl)c2ncc(SC)cc2c1)SC (stereo not drawn)", "melting point", "153 to 155 °C"]
]}
